Values from paper PMC6270026

test system: photosynthetic electron transport (PET) in spinach chloroplasts; test: Inhibition of photosynthetic electron transport (PET) in spinach chloroplasts; assay type: biochemical, Spinacia oleracea L.; conditions: DCPIP photoreduction
Listed below: IC50 values for each entry.
Write it as a number; the unit µM goes unstated.

In [3]: df
Out[3]:
                                smiles_repr  endpoint_name  experimental_value
0        O=C(Nc1cccc(F)c1)c1c(O)ccc2ccccc12           IC50                 213
1       COc1cccc(NC(=O)c2c(O)ccc3ccccc23)c1           IC50                 681
2       O=C(Nc1cccc(Cl)c1)c1c(O)ccc2ccccc12           IC50                79.7
3  O=C(Nc1cccc([N+](=O)[O-])c1)c1c(O)ccc2ccccc12           IC50                86.4

Req: Request the reported IC50 associated with O=C(Nc1ccccc1Cl)c1c(O)ccc2ccccc12
Resp: 49.6

###

test: Lipophilicity determination by RP-HPLC (capacity factor log k); format: physicochemical; settings: isocratic, MeOH 60%/H2O 40%, C18
We begin with a simple list: items and their reported log k.

                                   molecule  endpoint_name  experimental_value
0       O=C(Nc1ccc(Br)cc1)c1c(O)ccc2ccccc12          log k              0.8790
1       COc1cccc(NC(=O)c2c(O)ccc3ccccc23)c1          log k              0.6582
2          Cc1ccccc1NC(=O)c1c(O)ccc2ccccc12          log k              0.7962
3  O=C(Nc1ccccc1[N+](=O)[O-])c1c(O)ccc2ccccc12          log k              0.8501

Req: # query: log k of entry O=C(Nc1cccc(Br)c1)c1c(O)ccc2ccccc12
Resp: 0.8595

Req: Param item = COc1ccc(NC(=O)c2c(O)ccc3ccccc23)cc1 ; retrieve measured log k.
Resp: 0.6342

Req: // returns reported log k for input O=C(Nc1ccc(F)cc1)c1c(O)ccc2ccccc12
Resp: 0.5568

Req: Please report the recorded log k for Cc1ccc(NC(=O)c2c(O)ccc3ccccc23)cc1 .
Resp: 0.3751

Req: Look at this molecule and give its reported log k. O=C(Nc1ccc([N+](=O)[O-])cc1)c1c(O)ccc2ccccc12
Resp: 0.6260

###

system: Mycobacterium avium subsp. paratuberculosis (CIT03)
ENDPOINT_NAME: MIC (µM)
The figure you give is taken to be in µM; do not add the unit.

Below are worked cases with known answers.
>>> print(df.to_string())
                           smiles_repr                             system_tested  endpoint_name  result_units  experimental_value
0   Cc1cccc(NC(=O)c2c(O)ccc3ccccc23)c1  Mycobacterium avium subsp. paratuberculosis (CIT03)            MIC            µM                 451
1  O=C(Nc1ccc(Br)cc1)c1c(O)ccc2ccccc12  Mycobacterium avium subsp. paratuberculosis (CIT03)            MIC            µM                 175
2    O=C(Nc1ccccc1Cl)c1c(O)ccc2ccccc12  Mycobacterium avium subsp. paratuberculosis (CIT03)            MIC            µM                 202
3  O=C(Nc1cccc(Br)c1)c1c(O)ccc2ccccc12  Mycobacterium avium subsp. paratuberculosis (CIT03)            MIC            µM                 731

Req: Given O=C(Nc1cccc([N+](=O)[O-])c1)c1c(O)ccc2ccccc12 , state its recorded MIC.
Resp: 405

Req: What value of measured MIC is listed for O=C(Nc1ccc([N+](=O)[O-])cc1)c1c(O)ccc2ccccc12 ?
Resp: 811
